Source: patent US7481993B2

- EXPERIMENT_DESCRIPTION: Cysteine challenge stability of ^99mTc chelator peptides
- Type: physicochemical
- EXPERIMENTAL_SETUP: N1-N2-Cys triamide thiol chelators; cysteine challenge; 2 h
* marks the point of attachment. Bz = O=C(c1ccccc1)*
% Peptide Complexed to ^99mTc 2 h values, listed per item
OUTCOME_MEASURE: % Peptide Complexed to ^99mTc 2 h (%)

SUBSTANCE: Bz-Gly-Gly-Gln-Cys-Ala.amide (Bz-GGQCA-NH2; SMILES C[C@H](NC(=O)[C@H](CS)NC(=O)[C@H](CCC(N)=O)NC(=O)CNC(=O)CNC(=O)c1ccccc1)C(N)=O)
OUTCOME_MEASURE: % Peptide Complexed to ^99mTc 2 h
RECORDED_RESULT: 93.2
--
SUBSTANCE: Ac-Tyr-Gly-Met-Gly-Cys-Ala.amide (Ac-YGMGCA-NH2)
OUTCOME_MEASURE: % Peptide Complexed to ^99mTc 2 h
RECORDED_RESULT: 92.4
--
SUBSTANCE: Bz-Gly-Gly-Glu-Cys-Ala.amide (Bz-GGECA-NH2; SMILES C[C@H](NC(=O)[C@H](CS)NC(=O)[C@H](CCC(=O)O)NC(=O)CNC(=O)CNC(=O)c1ccccc1)C(N)=O)
OUTCOME_MEASURE: % Peptide Complexed to ^99mTc 2 h
RECORDED_RESULT: 88.9
--
SUBSTANCE: Ac-Tyr-Gly-Gly-His-Cys-Ala.amide (Ac-YGGHCA-NH2)
OUTCOME_MEASURE: % Peptide Complexed to ^99mTc 2 h
RECORDED_RESULT: 74.3
--
SUBSTANCE: Ac-Tyr-Gly-Gly-Orn-Cys-Ala.amide [GOC]
OUTCOME_MEASURE: % Peptide Complexed to ^99mTc 2 h
RECORDED_RESULT: 93.8
--
SUBSTANCE: Ac-Tyr-Gly-Glu-Gly-Cys-Ala.amide (Ac-YGEGCA-NH2)
OUTCOME_MEASURE: % Peptide Complexed to ^99mTc 2 h
RECORDED_RESULT: 84.1
--
SUBSTANCE: Ac-Tyr-Gly-Gly-(D)Orn-Cys-Ala.amide [GoC2]
OUTCOME_MEASURE: % Peptide Complexed to ^99mTc 2 h
RECORDED_RESULT: 91.1
--
SUBSTANCE: Bz-Gly-Gly-Met-Cys-Ala.amide (Bz-GGMCA-NH2; SMILES CSCC[C@H](NC(=O)CNC(=O)CNC(=O)c1ccccc1)C(=O)N[C@@H](CS)C(=O)N[C@@H](C)C(N)=O)
OUTCOME_MEASURE: % Peptide Complexed to ^99mTc 2 h
RECORDED_RESULT: 92.6
